Quantity kind: melting point

Please look at this compound and report its melting point: `O=C(CCCCCOc1ccccc1OCc1ccccc1)C(F)(F)F` 31 to 32 °C

====

Recorded melting point values for a group of compounds are listed next.

Compound: O=C1c2ccccc2S(=O)(=O)N1CCCCOc1ccc(OCc2ccccc2)cc1
Quantity kind: melting point
Reading: 82 to 84 °C

Compound: O=C(NCCCc1ccccc1)NCc1ccccn1
Quantity kind: melting point
Reading: 89 to 90 °C

Compound: O=C(NCCCc1ccccc1)Nc1ccccn1
Quantity kind: melting point
Reading: 127 to 128 °C

Compound: Cc1nnc(C(=O)CCCCCCOc2ccccc2)o1
Quantity kind: melting point
Reading: 75 to 77 °C

Compound: O=S(=O)(F)CCCCCc1ccc(O)cc1
Quantity kind: melting point
Reading: 32 to 35 °C

Compound: O=C1c2ccccc2S(=O)(=O)N1CCCCOc1ccc(O)cc1
Quantity kind: melting point
Reading: 107 to 109 °C

Compound: O=C(CCCOc1ccccc1OCc1ccccc1)C(F)(F)F
Quantity kind: melting point
Reading: 50 to 51 °C

Compound: Oc1cccc(OCCCC(O)(O)C(F)(F)F)c1 (hydrate or solvate)
Quantity kind: melting point
Reading: 76 to 77 °C

Compound: Cc1nnc(C(=O)CCCCCCOc2ccc(O)cc2)o1
Quantity kind: melting point
Reading: 134 to 135 °C

Compound: O=C(CCCCOc1ccc(OCc2ccccc2)cc1)C(F)(F)F
Quantity kind: melting point
Reading: 95.5 to 96 °C

Given `O=C1c2ccccc2S(=O)(=O)N1CCCCOc1ccccc1` , respond with its melting point. 92 to 94 °C

Quickly give me recorded melting point for `Cc1nnc(C(=O)CCCCCCOc2ccc(OCc3ccccc3)cc2)o1` 118 to 120 °C

Note down melting point recorded for `O=C(CCCCCCOc1ccc(O)cc1)C(F)(F)F` 61 to 62 °C
